Test: Pharmacokinetic evaluation in Dog
Format: in vivo
Conditions: in vivo; Dog, IV 0.33 mg/kg
READOUT: AUC(0-t)
Reply with a number, then the unit it belongs to.

*Q* Entry under review: Nc1ncn([C@H]2CC(O)[C@@H](CO)S2)c(=O)n1 (stereo partly shown) . Reported AUC(0-t)?
*A* 1050 ng·h/mL

---

Test: Pharmacokinetic evaluation in Dog
Assay type: in vivo
Conditions: in vivo; Dog, PO 0.67 mg/kg
READOUT: Cmax (ng/mL)
Please respond with the number in ng/mL and leave the unit unwritten.

*Q* Would you mind telling me what Cmax value was observed for Nc1ncn([C@H]2CC(O)[C@@H](CO)S2)c(=O)n1 (stereo partly shown) [Aza-T-dCyd, 4′-thio-5-aza-2′-deoxycytidine] ?
*A* 463
